// data source = ChEMBL document CHEMBL4627361

# test_description: Half life in human
# Type: ADME

- smi: "COCCCOc1cc(C[C@@H](C[C@H](N)[C@@H](O)C[C@H](C(=O)NCC(C)(C)C(N)=O)C(C)C)C(C)C)ccc1OC"
  half-life [h]: 24

###

# test_description: Aqueous solubility of compound in pH 7.4
# Format: physicochemical

- smi: "COCCCOc1cc(C[C@@H](C[C@H](N)[C@@H](O)C[C@H](C(=O)NCC(C)(C)C(N)=O)C(C)C)C(C)C)ccc1OC"
  readout_unit: "mg/mL"
  solubility: 350

###

# test_description: Octanol/water partition co-efficient, log P of compound at pH 7.4
# Type: physicochemical

- smi: "COCCCOc1cc(C[C@@H](C[C@H](N)[C@@H](O)C[C@H](C(=O)NCC(C)(C)C(N)=O)C(C)C)C(C)C)ccc1OC"
  logD: 2.45

###

# test_description: Protein binding in human plasma
# Format: ADME, cell-free
# condition_parameters: read-out: PPB (converted)

- smi: "COCCCOc1cc(C[C@@H](C[C@H](N)[C@@H](O)C[C@H](C(=O)NCC(C)(C)C(N)=O)C(C)C)C(C)C)ccc1OC"
  fraction unbound: 0.505
